Dear all, I have gathered published IC50 values for RORc (Homo sapiens, UniProt P51449); the list follows.
Okay, here is how we bin by IC50: low value (below 20 nM), medium value (20 nM to below 200 nM), high value (200 nM or more)

>  <compound>
CC1(C)[C@H]2CC[C@]1(c1nccc(NCCO)n1)c1nnc(-c3c(F)cccc3F)cc12

>  <measurement.target>
RORc (Homo sapiens, UniProt P51449)

>  <label.class>
medium value

$$$$
>  <compound>
CC1(C)[C@H]2CC[C@]1([C@@H]1CCCNC1=O)c1nnc(-c3c(F)cccc3F)cc12

>  <measurement.target>
RORc (Homo sapiens, UniProt P51449)

>  <label.class>
high value

$$$$
>  <compound>
CC1(C)[C@@H]2CC[C@@]1(C(=O)N1CCC(C(N)=O)C1)c1nnc(-c3c(F)cccc3F)cc12 (stereo partly shown)

>  <measurement.target>
RORc (Homo sapiens, UniProt P51449)

>  <label.class>
high value

$$$$
>  <compound>
CC(C)CN(Cc1ccc(-c2cccc(S(C)(=O)=O)c2)s1)S(=O)(=O)c1cccnc1

>  <measurement.target>
RORc (Homo sapiens, UniProt P51449)

>  <label.class>
high value

$$$$
>  <compound>
COc1nnc([C@@]23CC[C@@H](c4cc(-c5c(F)cccc5F)nnc42)C3(C)C)o1

>  <measurement.target>
RORc (Homo sapiens, UniProt P51449)

>  <label.class>
high value

$$$$

Query string: Please classify: "CCOC(=O)C[C@@H](O)C1(c2ccc(CN3[C@@H](C)CC[C@H](c4ccccc4)S3(=O)=O)c(F)c2)CCOCC1"
Result string: low value

Query string: Looking at "CCN(CC(N)=O)C[C@@]12CC[C@@H](c3cc(-c4c(F)cccc4F)nnc31)C2(C)C" , which class would you pick?
Result string: medium value

Query string: Please classify: "CC(=O)N1CCC(C#N)(c2cc(F)c(CN3[C@@H](C)CC[C@H](c4ccccc4)S3(=O)=O)cc2F)CC1"
Result string: low value

Query string: Returns: class label. Input: "CCN(C[C@@]12CC[C@@H](c3cc(-c4c(F)cccc4F)nnc31)C2(C)C)c1nnc(C(F)(F)F)o1"
Result string: low value

Query string: State the band of "CC(C)CN(Cc1csc(-c2ccc(S(C)(=O)=O)cc2)c1)S(=O)(=O)Cc1ccccc1"
Result string: high value

Query string: Entry "CC1(C)[C@H]2CC[C@]1(NCC(F)F)c1nnc(-c3c(F)cccc3F)cc12" belongs to which category?
Result string: medium value

Query string: Note: place this compound into its band. Item: "CC(C)(O)CNC(=O)c1cccc([C@@]23CC[C@@H](c4cc(-c5c(F)cccc5F)nnc42)C3(C)C)n1"
Result string: medium value

Query string: Band for the recorded IC50 of "CC(C)CN(Cc1ccc(F)cc1)S(=O)(=O)c1ccc(NC2CCN(S(C)(=O)=O)CC2)cc1" ?
Result string: low value

Query string: Lab note: which band did "CC(C)OC(=O)c1coc(-c2cncc([C@@]34CC[C@@H](c5cc(-c6c(F)cccc6F)nnc53)C4(C)C)n2)n1" land in?
Result string: low value

Query string: Consider C[C@H]1CCC(c2ccccc2)S(=O)(=O)N1Cc1ccc(C(=O)Nc2ccon2)cc1 (stereo partly shown) . To which IC50 class does it belong?
Result string: medium value

Query string: Form: Item = "CCO[C@@]12CC[C@@H](c3cc(-c4c(F)cccc4F)nnc31)C2(C)C" ; Class = ?
Result string: low value

Query string: State the band of "CC(C)(O)[C@@]12CC[C@@H](c3cc(-c4c(F)cccc4F)nnc31)C2(C)C"
Result string: medium value

Query string: In plain terms, what class is "CC1(C)[C@H]2CC[C@]1(c1cccc(-c3nnc(CO)[nH]3)n1)c1nnc(-c3c(F)cccc3F)cc12" ?
Result string: medium value

Query string: Assign a bin to "CC1(C)[C@@H]2CC[C@@]1(N1CCCC1=O)c1nnc(-c3c(F)cccc3F)cc12"
Result string: high value

Query string: Determine which band this compound sits in: C[C@H]1CCC(c2ccccc2)S(=O)(=O)N1Cc1ccc(-c2ccccc2)cc1F (stereo partly shown)
Result string: medium value

###

Compiled literature pIC50, tested on RORc (Homo sapiens).
When answering, recall that pIC50 equals minus log10 of the concentration in mol/L, and write that number alone.

Example cases with answers are listed next.
>  <structure.as.smiles>
CC1(C)[C@H]2CC[C@]1(c1ccnc(N3CC(C(N)=O)C3)n1)c1nnc(-c3c(F)cccc3F)cc12

>  <reading>
7.62

$$$$
>  <structure.as.smiles>
CC1(C)[C@@H]2CC[C@@]1(C(=O)NC1CCCC1)c1nnc(-c3c(F)cccc3F)cc12

>  <reading>
5.91

$$$$
>  <structure.as.smiles>
CC1(C)[C@H]2CC[C@]1(c1cncc(-c3nc([C@@H](O)C(F)(F)F)n[nH]3)n1)c1nnc(-c3c(F)cccc3F)cc12

>  <reading>
6.98

$$$$
>  <structure.as.smiles>
CC1(C)[C@H]2CC[C@]1([C@H]1CN(CC(F)F)CCO1)c1nnc(-c3c(F)cccc3F)cc12

>  <reading>
6.17

$$$$

GET /values?item= "C[C@@H](NC1=CC(=O)CCC1)c1cc(F)c(CN2[C@@H](C)CC[C@H](c3ccccc3)S2(=O)=O)cc1F" &system= RORc (Homo sapiens) returns pIC50: 6.58

###

pIC50 values for RORc (Homo sapiens) compiled from several publications are listed below.
Note: pIC50 values are expressed as the negative base-10 logarithm of concentration in M.

Observed pIC50 on RORc (Homo sapiens), entry "CN1C[C@@H]2C[C@H]1CN2C(=O)[C@]12CC[C@H](c3cc(-c4c(F)cccc4F)nnc31)C2(C)C" , equals 6.05

Known value: RORc (Homo sapiens) pIC50 of the compound "Cc1ncc(-c2cnc(C)c([C@@]34CC[C@@H](c5cc(-c6c(F)cccc6F)nnc53)C4(C)C)n2)o1" equals 7.82

GET /values?item= "CC(=O)N1CCN(c2ccc(S(=O)(=O)N(Cc3cccc(C(F)(F)F)c3)CC(C)C)cc2)CC1" &system= RORc (Homo sapiens) returns pIC50: 6.61

Record "Cc1n[nH]c(N2CCO[C@H]([C@@]34CC[C@@H](c5cc(-c6c(F)cccc6F)nnc53)C4(C)C)C2)n1" / RORc (Homo sapiens), pIC50 recorded as 7.72

Summary line: "CC1(C)[C@H]2CC[C@]1(c1cncc(C(=O)N3CC(C#N)C3)n1)c1nnc(-c3c(F)cccc3F)cc12" , RORc (Homo sapiens), reported pIC50 = 6.84

Item "CC1(C)[C@H]2CC[C@]1(CN(CCC#N)C(N)=O)c1nnc(-c3c(F)cccc3F)cc12" was tested on RORc (Homo sapiens); the reported pIC50 is 6.44

Reported RORc (Homo sapiens) pIC50 for item "Cc1noc([C@@]23CC[C@@H](c4cc(-c5c(F)cccc5F)nnc42)C3(C)C)n1" was 7.17

Item "CC1(C)[C@@H]2CC[C@@]1(C(=O)N1CC(CO)C1)c1nnc(-c3c(F)cccc3F)cc12" was tested on RORc (Homo sapiens); the reported pIC50 is 6.09

###

Below, IC50 values reported for RORc (Homo sapiens, UniProt P51449) across several publications.
The response must be a number in nM with no trailing unit.

See these solved cases before continuing.
>  <compound>
CC(C)CN([C@H](C)c1ccccc1)S(=O)(=O)c1ccc(N2CCN(S(C)(=O)=O)CC2)cc1

>  <unit.of.measure>
nM

>  <IC50>
483

$$$$
>  <compound>
C[C@H]1CCC(c2ccccc2)S(=O)(=O)N1Cc1ccc(-c2cccc(CC(N)=O)c2)cc1F (single isomer, unassigned)

>  <unit.of.measure>
nM

>  <IC50>
208

$$$$
>  <compound>
CC1(C)[C@H]2CC[C@]1(C(=O)N1CCc3cc(S(C)(=O)=O)ccc31)c1nnc(-c3ccccc3F)cc12 (stereo in doubt)

>  <unit.of.measure>
nM

>  <IC50>
3890

$$$$
>  <compound>
COC(=O)C1CCN(C(=O)[C@]23CC[C@H](c4cc(-c5c(F)cccc5F)nnc42)C3(C)C)C1 (some centres unmarked)

>  <unit.of.measure>
nM

>  <IC50>
32

$$$$
>  <compound>
CC[C@@H](O[C@@]12CC[C@@H](c3cc(-c4c(F)cccc4F)nnc31)C2(C)C)C(=O)NCC1(O)COC1

>  <unit.of.measure>
nM

>  <IC50>
44.5

$$$$

Shifting focus to the compound that follows.
Field IC50 (entry "CC(C)CN(Cc1ccc(-c2cccc(S(C)(=O)=O)c2)s1)S(=O)(=O)c1ccccc1C#N" ) reads 3700

###

Multiple publications report IC50 for RORc (Homo sapiens); what follows is a combined list.
Please respond with the number in nM and leave the unit unwritten.

Please review the following examples before continuing.
>  <compound>
CC[C@@H](O[C@@]12CC[C@@H](c3cc(-c4c(F)cccc4F)nnc31)C2(C)C)C(=O)NC[C@@H](O)CO

>  <unit.of.measure>
nM

>  <reading>
75.4

$$$$
>  <compound>
Cc1nnc(-c2cccc([C@@]34CC[C@@H](c5cc(-c6c(F)cccc6F)nnc53)C4(C)C)n2)[nH]1

>  <unit.of.measure>
nM

>  <reading>
24

$$$$

Now let's try a different one.
The compound CC1CC[C@H](C)N(Cc2cc(F)c(N3C[C@@H]4C(n5cnnc5)[C@@H]4C3)cc2F)S1(=O)=O (single isomer, unassigned) showed IC50 equal to 583
